B1: SPDEF (parent)
chain: YPEDSSWAAKAPGASSREEPPEEP

Variants of: B1
Experiment notes: protein stability index of a GFP-peptide fusion (GPS, HEK-293T) (PSI 1-6); higher = more stable;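 also: lentivirally expressed fusions sorted by FACS into six bins by GFP to DsRed ratio, PSI derived from sequencing read proportions per bin multiplied by bin number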
Measurement context: c terminus: a fixed tail appended
Reported values of protein stability index for individual entries

- Sequence change: "P21F"
  protein stability index: 3.76
- Sequence change: "R17I"
  protein stability index: 4.85
- Sequence change: "E18I"
  protein stability index: 4
- Sequence change: "R17T"
  protein stability index: 4.06
- Sequence change: "A9P"
  protein stability index: 4.23
- Sequence change: "R17W"
  protein stability index: 4.23
- Sequence change: "E18R"
  protein stability index: 4.32
- Sequence change: "R17S"
  protein stability index: 4
- Sequence change: "E3I"
  protein stability index: 4.92
- Sequence change: "A9I"
  protein stability index: 3.23
- Sequence change: "A8Q"
  protein stability index: 4.34
- Sequence change: "R17L"
  protein stability index: 3.62
- Sequence change: "P20G"
  protein stability index: 4.43
- Sequence change: "A14Y"
  protein stability index: 3.89
- Sequence change: "P21E"
  protein stability index: 4.26
- Sequence change: "A11G"
  protein stability index: 3.68
- Sequence change: "A9Y"
  protein stability index: 2.88
- Sequence change: "E3L"
  protein stability index: 4.69
- Sequence change: "P12T"
  protein stability index: 4.58
- Sequence change: "P12N"
  protein stability index: 3.89
- Sequence change: "E19W"
  protein stability index: 3.53
- Sequence change: "S5A"
  protein stability index: 4.69
- Sequence change: "R17N"
  protein stability index: 4.14
- Sequence change: "S15H"
  protein stability index: 4.72
